Where do these numbers come from? They come from PubChem BioAssay (NCI).

compounds and their reported growth inhibition
# Measurement description: NCI Yeast Anticancer Drug Screen. Data for the rad50 strain (AID 155);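 further: 0% = growth of vehicle-only cultures of the same strain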
# Recorded conditions: S. cerevisiae rad50 strain growth inhibition; at 50.0 µM; hits give high values
This is part of a sample that, as a whole, favours compounds with a hit. Of some 79,000 tested, about 15% had one in any assay.
Enter your answer as a number in %; do not include the unit.

| Compound | Readout | Value measured |
| --- | --- | --- |
| CC/C=C(\C)CC(C)O (stereo not given) | growth inhibition | 64.9 |

growth inhibition in this record for `Cc1cc(NCCCCCCCCNc2cc(C)nc3cc(N(C)C)ccc23)c2ccc(N(C)C)cc2n1` : 84.9

growth inhibition in this record for `C=C(CN1CCCC1)C(=O)c1ccc(OC)cc1` : 3.25

###

molecules and their reported growth inhibition
# Measurement description: NCI Yeast Anticancer Drug Screen. Data for the cln2 rad14 strain (AID 165);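 further: 0% = growth equal to vehicle treated cultures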
# Recorded conditions: S. cerevisiae cln2 rad14 strain, at 50.0 µM, hits give high values
The panel holds about 79,000 compounds, 15% with a hit somewhere; the sample as a whole holds those more often.
Enter your answer as a number in %; do not include the unit.

| Molecule | growth inhibition [%] |
| --- | --- |
| CC(C)/C(Cl)=N/OC(NC(=O)Nc1ccc(Cl)c(Cl)c1)(C(F)(F)F)C(F)(F)F | 99.2 |
| CC1=C(C#N)C(=O)OC1(C)C(CC(=O)c1ccccc1)c1ccccc1 (stereo not given) | 49.8 |
| ClC1=CC(Cl)=C2N=C(C(Cl)(Cl)Cl)N=C3N=C(C(Cl)(Cl)Cl)N=C1N32 | 99 |
| COC(=O)Nc1nc2ccc(CCC(=O)c3c(C)oc(C)c3-c3ccc(NC(C)=O)cc3)cc2[nH]1 | 27.4 |

growth inhibition in this record for `O=[N+]([O-])c1cc(Cl)ccc1S(=O)(=O)c1ccccc1` : 47.5

###

# Measurement description: NCI Yeast Anticancer Drug Screen. Data for the cln2 rad14 strain (AID 165);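 further: 0% = growth equal to vehicle treated cultures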
# Recorded conditions: S. cerevisiae cln2 rad14 strain, at 50.0 µM, hits give high values
This is part of a sample that, as a whole, favours compounds with a hit. Of some 79,000 tested, about 15% had one in any assay. Activity calls are given as the source filed them. Cut-off read from the data, not from the text of the source: active = growth inhibition above about 70%; inactive = the rest.
compounds and their reported growth inhibition

Examples with their reported growth inhibition follow.
| Compound | Value measured |
| --- | --- |
| CC(C)(C)CC(C)(C)NCc1cc(Cl)cc(Cc2cc(Cl)ccc2O)c1O | 16.8% (inactive) |
| O=Cc1c(O)ccc2ccccc12.[Cu+2] | 99% (active) |
| C=CCN1CCC(OC(=O)C(O)(/C=C\CC)C2CCCC2)CC1 (configuration not stated) | 62.8% (inactive) |
| CCOC(=O)/C(=C\c1cccc([N+](=O)[O-])c1)C(C)=O | 90.5% (active) |
| N=C1C(=O)c2ccccc2-c2ccccc21 | 91.3% (active) |

growth inhibition in this record for `O=C(N/C(=C\c1cccc([N+](=O)[O-])c1)c1nc2ccccc2s1)c1ccccc1` : 98.1% (active)

growth inhibition in this record for `C1=C(c2ccccc2)SC=C(c2ccccc2)S1` : -3.15% (inactive)

growth inhibition in this record for CC(=O)C1C(=O)C=C(C)OC1=O (configuration not stated) : 3.7% (inactive)

growth inhibition in this record for `CSS(=O)(=O)c1ccc(C)cc1` : 99.4% (active)

growth inhibition in this record for `c1ccc(C(c2ccccc2)c2ccc3ccccc3n2)cc1` : -15.3% (inactive)

growth inhibition in this record for `COc1ccc(/C=C/C(C)=N/NC(=S)NCC(C)C)cc1` : 18.4% (inactive)

growth inhibition in this record for `S=C(CSc1ccccc1)Nc1cccc2ccccc12` : 58.5% (inactive)
